Attribution: patent US20040229268A1

# System: VanA and VanB gene sequences
# testDetails: HPA for detecting VanA and VanB gene sequences (Example 12)
# Assay type: binding, E. faecalis, E. faecium
# statedConditions: ATCC 700802 (VanB), E. faecalis lysate
true (1) means recorded Probe Hybridization (in RLU) is 4000 RLU or above; false (0) means it is below 4000 RLU.

[
  {
    "sequenceInput": "CGCATCCATCAGGAAAACGAGCCGG (DNA, backbone and methylation of C not given here; acridinium ester (AE) label attached via linker; listed as Enterococcus faecalis) [VanB(+)428]",
    "className": "true (1)"
  },
  {
    "sequenceInput": "CCGCAGCTTGCATGGACAAATCACTGGC (DNA, backbone and methylation of C not given here; further chemistry not fully specified; listed as Enterococcus faecalis) [VanB(+)084]",
    "className": "true (1)"
  },
  {
    "sequenceInput": "CGTTCAGTACAATGCGGCCG (DNA, backbone and methylation of C not given here; further chemistry not fully specified; listed as Enterococcus faecium) [VanA(−)1325]",
    "className": "false (0)"
  },
  {
    "sequenceInput": "GCTGAGCTTTGAATATCGCAGCC (AE label linker 8/9, chemistry not fully specified; listed as Enterococcus faecium) [VanA(−)792]",
    "className": "false (0)"
  },
  {
    "sequenceInput": "GAGCTTTGAATATCGCAGCCTAC (AE label linker 11/12, chemistry not fully specified; listed as Enterococcus faecalis) [Van A&B(−)734]",
    "className": "true (1)"
  },
  {
    "sequenceInput": "GGGTTGCTCAGAGGAGCATGACGTATCGG (DNA, backbone and methylation of C not given here; further chemistry not fully specified; listed as Enterococcus faecium) [VanA(+)464]",
    "className": "false (0)"
  },
  {
    "sequenceInput": "CCAAGCACCCGATATACTTTCTTTGCC (DNA, backbone and methylation of C not given here; further chemistry not fully specified; listed as Enterococcus faecalis) [VanB(−)1006]",
    "className": "true (1)"
  }
]

###

Listed below: Probe alone Avg RLU values for each entry.
# Tested on: mecA gene; Staphylococcus ribosomal nucleic acids
# testDetails: HPA after thermal lysis, base hydrolysis and neutralization (Examples 5-7)
# Assay type: binding, S. aureus
# statedConditions: Table 9; lysis 10 minutes, hybridization 20 minutes

[
  {
    "sequenceInput": "GCTCCAACATGAAGATGGCTATCGTGTCACAATCG (DNA, backbone and methylation of C not given here; acridinium ester label on internal non-nucleotide linker; listed as Staphylococcus aureus) [probe 5]",
    "readoutUnit": "RLU",
    "Probe alone Avg RLU": 2823
  },
  {
    "sequenceInput": "GCGATAATGGTGAAGTAGAAATGACTGAACGTCCG (DNA, backbone and methylation of C not given here; acridinium ester label on internal non-nucleotide linker; listed as Staphylococcus aureus) [probe 3]",
    "readoutUnit": "RLU",
    "Probe alone Avg RLU": 684
  },
  {
    "sequenceInput": "CGATTGTGACACGATAGCCATCTTCATGTTGGAGC (DNA, backbone and methylation of C not given here; acridinium ester label on internal non-nucleotide linker; listed as Staphylococcus aureus) [probe 6]",
    "readoutUnit": "RLU",
    "Probe alone Avg RLU": 1004
  },
  {
    "sequenceInput": "GGTATGTGGAAGTTAGATTGGGATCATAGCG (AE label, linker between 13 and 14, chemistry not fully specified; listed as Staphylococcus aureus) [Probe 1]",
    "readoutUnit": "RLU",
    "Probe alone Avg RLU": 2476
  },
  {
    "sequenceInput": "CGGACGTTCAGTCATTTCTACTTCACCATTATCGC (DNA, backbone and methylation of C not given here; acridinium ester label on internal non-nucleotide linker; listed as Staphylococcus aureus) [probe 4]",
    "readoutUnit": "RLU",
    "Probe alone Avg RLU": 734
  }
]
